# subjectOfTest: Integrin alpha-IIb/beta-3 (Homo sapiens, UniProt P08514+P05106)
# Sequence (P05106 27-788 limits assumed): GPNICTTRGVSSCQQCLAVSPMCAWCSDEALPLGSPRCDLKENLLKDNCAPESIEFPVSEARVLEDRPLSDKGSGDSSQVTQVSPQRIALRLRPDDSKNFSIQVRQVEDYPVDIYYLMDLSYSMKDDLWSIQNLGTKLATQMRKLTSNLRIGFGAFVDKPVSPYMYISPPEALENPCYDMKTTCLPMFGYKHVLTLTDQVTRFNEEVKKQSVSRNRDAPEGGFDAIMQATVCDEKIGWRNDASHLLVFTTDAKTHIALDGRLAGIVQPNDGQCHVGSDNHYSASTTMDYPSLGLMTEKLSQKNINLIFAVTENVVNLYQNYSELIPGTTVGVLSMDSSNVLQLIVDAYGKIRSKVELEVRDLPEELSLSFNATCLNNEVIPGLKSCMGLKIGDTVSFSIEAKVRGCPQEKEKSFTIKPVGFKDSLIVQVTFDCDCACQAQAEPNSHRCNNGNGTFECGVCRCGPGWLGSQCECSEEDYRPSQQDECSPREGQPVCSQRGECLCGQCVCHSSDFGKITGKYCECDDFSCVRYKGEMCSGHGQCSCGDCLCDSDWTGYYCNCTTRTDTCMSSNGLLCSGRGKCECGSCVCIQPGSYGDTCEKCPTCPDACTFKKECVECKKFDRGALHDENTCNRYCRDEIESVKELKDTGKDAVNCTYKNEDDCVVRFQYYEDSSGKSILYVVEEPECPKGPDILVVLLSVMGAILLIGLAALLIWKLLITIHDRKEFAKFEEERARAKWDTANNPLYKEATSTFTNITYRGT
# Sequence (P08514 32-887 limits assumed): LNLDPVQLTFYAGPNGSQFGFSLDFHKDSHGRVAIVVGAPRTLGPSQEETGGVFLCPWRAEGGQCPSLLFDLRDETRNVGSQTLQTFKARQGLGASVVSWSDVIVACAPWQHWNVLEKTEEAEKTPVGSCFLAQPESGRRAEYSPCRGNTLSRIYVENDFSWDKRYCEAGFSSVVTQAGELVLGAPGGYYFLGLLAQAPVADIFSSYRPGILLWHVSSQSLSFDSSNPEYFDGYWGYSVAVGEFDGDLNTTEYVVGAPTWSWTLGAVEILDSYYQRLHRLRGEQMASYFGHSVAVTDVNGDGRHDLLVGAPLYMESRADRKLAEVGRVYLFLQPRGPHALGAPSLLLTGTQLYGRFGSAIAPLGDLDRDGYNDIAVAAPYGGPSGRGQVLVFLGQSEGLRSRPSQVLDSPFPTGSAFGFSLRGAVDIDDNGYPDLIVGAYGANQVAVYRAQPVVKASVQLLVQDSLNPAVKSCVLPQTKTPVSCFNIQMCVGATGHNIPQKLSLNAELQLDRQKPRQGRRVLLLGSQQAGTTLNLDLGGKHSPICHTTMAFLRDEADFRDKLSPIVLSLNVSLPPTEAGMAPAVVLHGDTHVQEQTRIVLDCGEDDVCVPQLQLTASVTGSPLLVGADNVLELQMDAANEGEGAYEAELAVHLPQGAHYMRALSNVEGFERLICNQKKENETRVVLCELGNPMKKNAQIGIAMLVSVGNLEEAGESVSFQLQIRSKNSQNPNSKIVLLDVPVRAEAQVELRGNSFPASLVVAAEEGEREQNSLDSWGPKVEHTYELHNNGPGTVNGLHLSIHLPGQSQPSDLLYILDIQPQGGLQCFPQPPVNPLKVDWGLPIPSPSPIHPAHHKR
# Sequence (P08514 891-1039 limits assumed): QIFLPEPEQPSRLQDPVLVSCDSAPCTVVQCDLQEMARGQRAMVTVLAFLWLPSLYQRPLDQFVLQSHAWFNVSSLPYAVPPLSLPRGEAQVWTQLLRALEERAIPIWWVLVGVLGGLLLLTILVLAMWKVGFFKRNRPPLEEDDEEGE
# testMethodNotes: Inhibition of 17.5 uM ADP-induced platelet aggregation of human platelet-rich plasma
The label 1 is reserved for IC50 strictly under 90 nM; 0 covers values equal to or above it.

| structureAsSmiles | group |
| --- | --- |
| C[C@H](CC(=O)O)N1CC(=O)N(C(C)(C)C)c2c(Cl)cc(C#Cc3ccc(C(=N)N)cc3)cc2C1=O | 0 |
| C[C@@H](CC(=O)O)N1CC(=O)N(C(C)(C)C)c2c(Cl)cc(C#Cc3ccc(C(=N)N)cc3)cc2C1=O | 1 |
| C[C@@H](CC(=O)O)N1CC(=O)N(C)c2ccc(C#Cc3ccc(C(=N)N)cc3)cc2C1=O | 1 |
| C[C@H](CC(=O)O)N1CC(=O)N(C)c2ccc(C#Cc3ccc(C(=N)N)cc3)cc2C1=O | 0 |
| C[C@@H](CC(=O)O)N1CC(=O)N(C)c2c(Cl)cc(C#Cc3ccc(C(=N)N)cc3)cc2C1=O | 0 |

Every entry's value here was drawn from BindingDB's records for doi:10.1021/jm960652r.
